- Tested on: Mycobacterium tuberculosis CRY-2; CRY-25
Note to self: use criterion met only for MIC (REMA) readings below 0.2 µg/mL; a reading exactly at 0.2 µg/mL still gets criterion not met.

Look over these answered cases.
Say whether its MIC (REMA) is strictly beneath 0.2 µg/mL. Entry: C[C@]1(COc2ccc(N3CCC(Oc4ccc(OC(F)(F)F)cc4)CC3)cc2)Cn2cc([N+](=O)[O-])nc2O1
criterion met

Would you kindly verify if MIC (REMA) of COc1nc2ccc(Br)cc2cc1[C@@H](c1ccccc1)[C@@](O)(CCN(C)C)c1cccc2ccccc12 is strictly less than 0.2 µg/mL?
criterion met

Please determine if COc1c(N2C[C@@H]3CCCN[C@@H]3C2)c(F)cc2c(=O)c(C(=O)O)cn(C3CC3)c12 is below 0.2 µg/mL in terms of MIC (REMA).
criterion not met

More entries:
Hello, I'm reviewing records and need to know if MIC (REMA) of NCC[C@H](O)C(=O)N[C@@H]1C[C@H](N)[C@@H](O[C@H]2O[C@H](CN)[C@@H](O)[C@H](O)[C@H]2O)[C@H](O)[C@H]1O[C@H]1O[C@H](CO)[C@@H](O)[C@H](N)[C@H]1O is below 0.2 µg/mL. Could you check?
criterion not met

Consider NC[C@H]1O[C@H](O[C@H]2[C@H](O)[C@@H](O[C@H]3O[C@H](CO)[C@@H](O)[C@H](N)[C@H]3O)[C@H](N)C[C@@H]2N)[C@H](O)[C@@H](O)[C@@H]1O . Does its MIC (REMA) lie strictly below 0.2 µg/mL?
criterion not met

Consider CO[C@H]1/C=C/O[C@@]2(C)Oc3c(C)c(O)c4c(c3C2=O)C2=NC3(CCN(CC(C)C)CC3)NC2=C(NC(=O)/C(C)=C\C=C\[C@H](C)[C@H](O)[C@@H](C)[C@@H](O)[C@@H](C)[C@H](OC(C)=O)[C@@H]1C)C4=O . Does its MIC (REMA) lie strictly below 0.2 µg/mL?
criterion met
